assay-info: Pharmacokinetics in female BALB/c nude mice bearing A375 xenografts, 1 day dosing (PK and PD study): plasma, tumor and brain concentrations, AUC
Assay type: in vivo
measurement-conditions: mouse, tumor, po, 3 mg/kg, 3 mg/kg p.o. QD × 1 day; 24 h; read-out: Mean Concentration in Tumor ± SEM
assay-readout: concentration at 24 h (ng/g)
I only need the number, in ng/g, no unit after it.

Data request: Give me measured concentration at 24 h, please, for this compound: CCN(C)S(=O)(=O)Nc1ccc(F)c(Oc2ccc3ncn(C4CC5(CCN(C6CC7(C6)CN(c6cc8c(cc6F)c(N6CCC(=O)NC6=O)nn8C)C7)CC5)C4)c(=O)c3c2)c1C#N (stereo not shown) [Compound 141]
Data returned: 12.9

====

assay-info: Pharmacokinetics in female BALB/c nude mice bearing A375 xenografts, 1 day dosing (PK and PD study): plasma, tumor and brain concentrations, AUC
Type: in vivo
measurement-conditions: mouse, plasma, po, 2 mg/kg, 2 mg/kg p.o. TID × 1 day; post 3rd dose; 1 h; read-out: Mean Concentration in Plasma ± SEM
assay-readout: concentration at 1 h (ng/mL)
I only need the number, in ng/mL, no unit after it.

Data request: Give me measured concentration at 1 h, please, for this compound: CCN(C)S(=O)(=O)Nc1ccc(F)c(Oc2ccc3ncn([C@H]4COC5(CCN(C6CC7(C6)CN(c6cc8c(cc6F)c(N6CCC(=O)NC6=O)nn8C)C7)CC5)C4)c(=O)c3c2)c1C#N
Data returned: 3780

====

assay-info: Pharmacokinetics in female BALB/c nude mice bearing A375 xenografts, 1 day dosing (PK and PD study): plasma, tumor and brain concentrations, AUC
Format: in vivo
measurement-conditions: mouse, tumor, po, 1.5 mg/kg, 1.5 mg/kg p.o. BID × 1 day; post 2nd dose; 1 h; read-out: Mean Concentration in Tumor ± SEM
assay-readout: concentration at 1 h (ng/g)
I only need the number, in ng/g, no unit after it.

Data request: Give me measured concentration at 1 h, please, for this compound: CCN(C)S(=O)(=O)Nc1ccc(F)c(Oc2ccc3ncn([C@H]4COC5(CCN(C6CC7(C6)CN(c6cc8c(cc6F)c(N6CCC(=O)NC6=O)nn8C)C7)CC5)C4)c(=O)c3c2)c1C#N
Data returned: 164

====

assay-info: Pharmacokinetics after 21 days dosing in the efficacy study (plasma, tumor and brain concentrations; plasma AUC at steady state), Example 14
Assay type: in vivo, female BALB/c nude mice
measurement-conditions: mouse, plasma, po; 5 mg/kg p.o. BID x 21 days; 4 h; mean ± SEM; read-out: Concentration in Plasma
assay-readout: concentration at 4 h
The number alone won't do; follow it with the unit.

Data request: Give me measured concentration at 4 h, please, for this compound: CCN(C)S(=O)(=O)Nc1ccc(F)c(Oc2ccc3ncn(C4CC5(CCN(C6CC7(C6)CN(c6cc8c(cc6F)c(N6CCC(=O)NC6=O)nn8C)C7)CC5)C4)c(=O)c3c2)c1C#N (stereo not shown) [Compound 141]
Data returned: 3730 ng/mL

====

assay-info: Pharmacokinetics in female BALB/c nude mice bearing A375 xenografts, 1 day dosing (PK and PD study): plasma, tumor and brain concentrations, AUC
Assay type: in vivo
measurement-conditions: mouse, plasma, po, 3 mg/kg, 3 mg/kg p.o. BID × 1 day; post 2nd dose; 36 h; read-out: Mean Concentration in Plasma ± SEM
assay-readout: concentration at 36 h (ng/mL)
I only need the number, in ng/mL, no unit after it.

Data request: Give me measured concentration at 36 h, please, for this compound: CCN(C)S(=O)(=O)Nc1ccc(F)c(Oc2ccc3ncn([C@H]4COC5(CCN(C6CC7(C6)CN(c6cc8c(cc6F)c(N6CCC(=O)NC6=O)nn8C)C7)CC5)C4)c(=O)c3c2)c1C#N
Data returned: 1.58

====

System: A375 human melanoma xenografts
assay-info: Example 7 efficacy study in A375 human melanoma xenografts (tumor volume, T/C, TGI)
Format: in vivo, BALB/c nude mice
measurement-conditions: 10 mg/kg, p.o., BID × 14 days; PG-D14
assay-readout: Tumor Size on PG-D14 (mean ± SEM) (mm^3)
I only need the number, in mm^3, no unit after it.

Data request: Give me measured Tumor Size on PG-D14 (mean ± SEM), please, for this compound: CCN(C)S(=O)(=O)Nc1ccc(F)c(Oc2ccc3ncc(C4CC5(CCN(C6CCC(c7cc8c(cc7F)c(N7CCC(=O)NC7=O)nn8C)CC6)CC5)C4)nc3c2)c1C#N (single isomer, unassigned) [Compound 180]
Data returned: 96

Data request: Give me measured Tumor Size on PG-D14 (mean ± SEM), please, for this compound: CCN(C)S(=O)(=O)Nc1ccc(F)c(Oc2ccc3ncc(OCC4CCN(C5CCC(c6cc7c(cc6F)c(N6CCC(=O)NC6=O)nn7C)CC5)CC4)nc3c2)c1C#N (single isomer, unassigned) [Compound 118]
Data returned: 81

Data request: Give me measured Tumor Size on PG-D14 (mean ± SEM), please, for this compound: CCN(C)S(=O)(=O)Nc1ccc(F)c(Oc2ccc3ncn(C4CC5(CCN(C6CC7(C6)CN(c6cc8c(cc6F)c(N6CCC(=O)NC6=O)nn8C)C7)CC5)C4)c(=O)c3c2)c1C#N (stereo not shown) [Compound 141]
Data returned: 32

Data request: Give me measured Tumor Size on PG-D14 (mean ± SEM), please, for this compound: CCN(C)S(=O)(=O)Nc1ccc(F)c(Oc2ccc3ncn(C4CC5(CCN(C6CCN(c7cc8c(cc7F)c(N7CCC(=O)NC7=O)nn8C)CC6)CC5)C4)c(=O)c3c2)c1C#N [Compound 156]
Data returned: 34

====

assay-info: Example 7 pharmacokinetics assay for efficacy study (plasma, liver)
Type: in vivo, BALB/c nude mice
measurement-conditions: mouse, plasma, po, 10 mg/kg, p.o., BID × 14 days, read-out: Concentration in Plasma (mean ± SEM)
assay-readout: concentration at 6 h (ng/mL)
I only need the number, in ng/mL, no unit after it.

Data request: Give me measured concentration at 6 h, please, for this compound: CCN(C)S(=O)(=O)Nc1ccc(F)c(Oc2ccc3ncn(C4CC5(CCN(C6CCN(c7cc8c(cc7F)c(N7CCC(=O)NC7=O)nn8C)CC6)CC5)C4)c(=O)c3c2)c1C#N
Data returned: 1870

Data request: Give me measured concentration at 6 h, please, for this compound: CCN(C)S(=O)(=O)Nc1ccc(F)c(Oc2ccc3ncc(C4CC5(CCN(C6CCC(c7cc8c(cc7F)c(N7CCC(=O)NC7=O)nn8C)CC6)CC5)C4)nc3c2)c1C#N (single isomer, unassigned)
Data returned: 1920

Data request: Give me measured concentration at 6 h, please, for this compound: CCN(C)S(=O)(=O)Nc1ccc(F)c(Oc2ccc3ncc(OCC4CCN(C5CCC(c6cc7c(cc6F)c(N6CCC(=O)NC6=O)nn7C)CC5)CC4)nc3c2)c1C#N (single isomer, unassigned)
Data returned: 4160

Data request: Give me measured concentration at 6 h, please, for this compound: CCN(C)S(=O)(=O)Nc1ccc(F)c(Oc2ccc3ncn(C4CC5(CCN(C6CC7(C6)CN(c6cc8c(cc6F)c(N6CCC(=O)NC6=O)nn8C)C7)CC5)C4)c(=O)c3c2)c1C#N (stereo not shown)
Data returned: 8750

====

assay-info: Pharmacokinetics after 21 days dosing in the efficacy study (plasma, tumor and brain concentrations; plasma AUC at steady state), Example 14
Assay type: in vivo, female BALB/c nude mice
measurement-conditions: mouse, brain, po; 5 mg/kg p.o. BID x 21 days; 24 h; read-out: Concentration in Brain
assay-readout: concentration at 24 h

Data request: Give me measured concentration at 24 h, please, for this molecule: CCN(C)S(=O)(=O)Nc1ccc(F)c(Oc2ccc3ncn(C4CC5(CCN(C6CC7(C6)CN(c6cc8c(cc6F)c(N6CCC(=O)NC6=O)nn8C)C7)CC5)C4)c(=O)c3c2)c1C#N (stereo not shown) [Compound 141]
Data returned: 2.25 ng/g

====

assay-info: Pharmacokinetics in female BALB/c nude mice bearing A375 xenografts, 1 day dosing (PK and PD study): plasma, tumor and brain concentrations, AUC
Format: in vivo
measurement-conditions: mouse, plasma, po, 5 mg/kg, 5 mg/kg p.o. BID × 1 day; post 2nd dose; 2 h; read-out: Mean Concentration in Plasma ± SEM
assay-readout: concentration at 2 h (ng/mL)
I only need the number, in ng/mL, no unit after it.

Data request: Give me measured concentration at 2 h, please, for this molecule: CCN(C)S(=O)(=O)Nc1ccc(F)c(Oc2ccc3ncn(C4CC5(CCN(C6CC7(C6)CN(c6cc8c(cc6F)c(N6CCC(=O)NC6=O)nn8C)C7)CC5)C4)c(=O)c3c2)c1C#N (stereo not shown)
Data returned: 3620

====

target-of-assay: BRAF V600E (Homo sapiens, UniProt P15056+Q96SW2, V600E)
Construct: knock-in of the HiBiT tag to the endogenous BRAF V600E locus; host or cells: A375.10 (A375 clonal line, CRISPR HiBiT knock-in at the endogenous BRAF V600E locus)
Sequence (P15056 whole entry V600E): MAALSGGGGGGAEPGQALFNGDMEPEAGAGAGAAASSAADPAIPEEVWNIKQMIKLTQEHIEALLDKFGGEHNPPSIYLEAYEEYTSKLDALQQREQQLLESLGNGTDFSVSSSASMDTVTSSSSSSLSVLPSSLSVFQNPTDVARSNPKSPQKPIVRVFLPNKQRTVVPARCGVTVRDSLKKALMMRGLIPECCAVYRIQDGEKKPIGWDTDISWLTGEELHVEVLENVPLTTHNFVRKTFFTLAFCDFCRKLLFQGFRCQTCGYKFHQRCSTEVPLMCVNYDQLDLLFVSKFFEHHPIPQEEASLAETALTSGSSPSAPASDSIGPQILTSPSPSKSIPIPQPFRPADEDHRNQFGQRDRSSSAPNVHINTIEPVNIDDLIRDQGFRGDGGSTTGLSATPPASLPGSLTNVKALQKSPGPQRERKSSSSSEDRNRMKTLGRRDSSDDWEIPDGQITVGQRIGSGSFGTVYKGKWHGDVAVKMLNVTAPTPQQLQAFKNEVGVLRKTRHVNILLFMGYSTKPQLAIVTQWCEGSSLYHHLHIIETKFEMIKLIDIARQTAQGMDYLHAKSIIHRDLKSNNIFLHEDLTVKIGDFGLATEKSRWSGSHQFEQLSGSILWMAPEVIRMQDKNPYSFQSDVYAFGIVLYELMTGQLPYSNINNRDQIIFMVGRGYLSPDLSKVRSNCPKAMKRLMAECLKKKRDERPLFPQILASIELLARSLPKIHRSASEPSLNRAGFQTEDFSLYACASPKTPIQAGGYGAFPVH
Sequence (Q96SW2 whole entry): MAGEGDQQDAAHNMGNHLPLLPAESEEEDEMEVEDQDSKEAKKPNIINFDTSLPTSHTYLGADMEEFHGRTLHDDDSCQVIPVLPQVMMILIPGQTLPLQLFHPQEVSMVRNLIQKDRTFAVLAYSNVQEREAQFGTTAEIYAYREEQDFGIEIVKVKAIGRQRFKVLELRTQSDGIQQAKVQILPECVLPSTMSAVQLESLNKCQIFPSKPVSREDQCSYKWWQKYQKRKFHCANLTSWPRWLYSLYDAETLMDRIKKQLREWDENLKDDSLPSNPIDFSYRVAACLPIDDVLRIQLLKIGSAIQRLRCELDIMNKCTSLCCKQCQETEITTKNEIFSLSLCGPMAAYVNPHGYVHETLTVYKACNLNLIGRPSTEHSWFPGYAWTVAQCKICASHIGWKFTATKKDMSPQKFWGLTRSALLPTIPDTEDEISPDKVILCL
Sequence (Q16531 whole entry partner): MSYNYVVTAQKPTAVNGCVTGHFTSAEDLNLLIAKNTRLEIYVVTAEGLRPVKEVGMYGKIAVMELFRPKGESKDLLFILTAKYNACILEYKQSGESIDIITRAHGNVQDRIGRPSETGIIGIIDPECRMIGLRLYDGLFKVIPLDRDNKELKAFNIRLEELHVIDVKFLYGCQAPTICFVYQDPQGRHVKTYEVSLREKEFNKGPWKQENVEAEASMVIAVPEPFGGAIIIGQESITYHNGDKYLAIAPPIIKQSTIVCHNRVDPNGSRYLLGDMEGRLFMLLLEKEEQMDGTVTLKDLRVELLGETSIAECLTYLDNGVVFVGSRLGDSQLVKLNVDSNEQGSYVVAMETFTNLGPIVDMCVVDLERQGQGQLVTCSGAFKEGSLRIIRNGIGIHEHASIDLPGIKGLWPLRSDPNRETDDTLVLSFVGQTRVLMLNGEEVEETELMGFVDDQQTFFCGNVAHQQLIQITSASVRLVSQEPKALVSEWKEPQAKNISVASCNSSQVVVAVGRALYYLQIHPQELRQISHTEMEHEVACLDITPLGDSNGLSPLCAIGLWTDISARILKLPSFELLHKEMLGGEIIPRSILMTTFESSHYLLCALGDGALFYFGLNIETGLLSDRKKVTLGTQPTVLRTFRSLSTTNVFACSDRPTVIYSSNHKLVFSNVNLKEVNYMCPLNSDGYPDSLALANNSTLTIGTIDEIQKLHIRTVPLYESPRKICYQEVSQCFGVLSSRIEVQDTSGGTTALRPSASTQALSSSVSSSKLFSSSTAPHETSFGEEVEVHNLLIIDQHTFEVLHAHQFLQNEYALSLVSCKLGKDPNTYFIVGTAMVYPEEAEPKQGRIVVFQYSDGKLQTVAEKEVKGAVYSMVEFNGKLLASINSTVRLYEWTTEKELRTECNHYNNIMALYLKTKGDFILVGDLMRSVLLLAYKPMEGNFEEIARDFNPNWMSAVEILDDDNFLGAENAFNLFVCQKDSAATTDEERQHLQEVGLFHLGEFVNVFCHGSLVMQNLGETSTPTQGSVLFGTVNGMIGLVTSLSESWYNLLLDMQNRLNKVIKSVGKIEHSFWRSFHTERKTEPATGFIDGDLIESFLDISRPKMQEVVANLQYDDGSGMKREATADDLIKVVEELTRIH
assay-info: BRAF V600E HiBiT Degradation Assay
Format: cell-based
measurement-conditions: A375.10 cells, BRAF V600E, 2 hours; inflection point; read-out: HiBiT-Degradation A375.10 BRAF 2 hours IP
Procedure: Compounds of this invention were tested for degradation of mutant BRAF V600E using the HiBiT assay, a luminescence-based assay for quantification of cellular protein levels using the Nano-Glo® HiBiT Lytic Detection System (Catalog No. N3050, Promega, Madison, WI USA). […] Data were analyzed with a 4-parameter logistic fit to generate sigmoidal dose-response curves. […]
What DC50 was measured for each of the following?

Data request: Give me measured DC50, please, for this compound: CCN(C)S(=O)(=O)Nc1ccc(F)c(Oc2ccc3ncn([C@H]4C[C@@H]5CN(C6CCC(c7cc8c(cc7F)c(N7CCC(=O)NC7=O)nn8C)CC6)C[C@@H]5C4)c(=O)c3c2)c1C#N (single isomer, unassigned)
Data returned: < 1000 nM

Data request: Give me measured DC50, please, for this compound: CC(C)S(=O)(=O)Nc1ccc(F)c(Oc2ccc3ncn(C4CC5(CCN(C6CCC(c7cc8c(cc7F)c(N7CCC(=O)NC7=O)nn8C)CC6)CC5)C4)c(=O)c3c2)c1C#N (single isomer, unassigned) [Compound 95]
Data returned: < 1000 nM

Data request: Give me measured DC50, please, for this compound: CCN(C)S(=O)(=O)Nc1ccc(F)c(Oc2ccc3ncn([C@H]4COC5(CCN(C6CCC(c7ccc(N[C@@H]8CCC(=O)NC8=O)cc7F)CC6)CC5)C4)c(=O)c3c2)c1C#N (single isomer, unassigned)
Data returned: < 1000 nM

Data request: Give me measured DC50, please, for this compound: CCN(C)S(=O)(=O)Nc1ccc(F)c(Oc2ccc3ncn([C@H]4CCC5(CCN(C6CCC(c7ccc(NC8CCC(=O)NC8=O)cc7F)CC6)CC5)C4)c(=O)c3c2)c1C#N (single isomer, unassigned) [Compound 24]
Data returned: < 1000 nM
